Entry source: ChEMBL document CHEMBL1156987

- Tested on: Streptococcus pyogenes
- test protocol: Antibacterial activity against Streptococcus pyogenes 3 expressing mefA efflux pump after 20 hrs by agar dilution method
- Type: functional
- test settings: Streptococcus pyogenes, 3, 20 h
result type: MIC

Solved cases (2 shown):
* CCNC(=O)O[C@H]1[C@H](C)O[C@@H](O[C@H]2[C@H](N(C)C)[C@@H](O)[C@H](O[C@H]3[C@@H](CC=O)C[C@@H](C)[C@@H](O)CN(C)CCC[C@H](C/C=C/c4ccc(N)nc4)OC(=O)C[C@@H](OC(=O)CC)[C@@H]3OC)O[C@@H]2C)C[C@@]1(C)OC(=O)CC | 0.5 µg/mL
* CC[C@H]1OC(=O)[C@H](C)C(=O)[C@H](C)[C@@H](O[C@@H]2O[C@H](C)C[C@H](N(C)C)[C@H]2O)[C@](C)(OC)C[C@@H](C)C(=O)[C@H](C)[C@H]2N(CCCCn3cnc(-c4cccnc4)c3)C(=O)O[C@]12C | 0.5 µg/mL

Look up MIC for the entries below, preserving their order.
1. CCC(=O)O[C@@H]1CC(=O)O[C@@H](C/C=C/c2cnc3ccccc3c2)CCCN(C)C[C@H](O)[C@H](C)C[C@H](CC=O)[C@H](O[C@@H]2O[C@H](C)[C@@H](O[C@H]3C[C@@](C)(OC(=O)CC)[C@@H](OC(=O)NC)[C@H](C)O3)[C@H](N(C)C)[C@H]2O)[C@H]1OC
2. CCNC(=O)O[C@H]1[C@H](C)O[C@@H](O[C@H]2[C@H](N(C)C)[C@@H](O)[C@H](O[C@H]3[C@@H](CC=O)C[C@@H](C)[C@@H](O)CN(C)CCC[C@H](C/C=C/c4cccnc4)OC(=O)C[C@@H](OC(=O)CC)[C@@H]3OC)O[C@@H]2C)C[C@@]1(C)OC(=O)CC
3. CCNC(=O)O[C@H]1[C@H](C)O[C@@H](O[C@H]2[C@H](N(C)C)[C@@H](O)[C@H](O[C@H]3[C@@H](CC=O)C[C@@H](C)[C@@H](O)CN(C)CCC[C@H](C/C=C/c4cncc5ccccc45)OC(=O)C[C@@H](OC(=O)CC)[C@@H]3OC)O[C@@H]2C)C[C@@]1(C)OC(=O)CC
4. CCNC(=O)O[C@H]1[C@H](C)O[C@@H](O[C@H]2[C@H](N(C)C)[C@@H](O)[C@H](O[C@H]3[C@@H](CC=O)C[C@@H](C)[C@@H](O)CN(C)CCC[C@H](C/C=C/c4cnc5ccccc5c4)OC(=O)C[C@@H](OC(=O)CC)[C@@H]3OC)O[C@@H]2C)C[C@@]1(C)OC(=O)CC
5. CCC(=O)O[C@@H]1CC(=O)O[C@@H](C/C=C/c2cnc3ccccc3c2)CCCN(C)C[C@H](O)[C@H](C)C[C@H](CC=O)[C@H](O[C@@H]2O[C@H](C)[C@@H](O[C@H]3C[C@@](C)(O)[C@@H](OC(=O)CC)[C@H](C)O3)[C@H](N(C)C)[C@H]2O)[C@H]1OC

Output:
1: 0.06 µg/mL; 2: 0.5 µg/mL; 3: 0.25 µg/mL; 4: 0.13 µg/mL; 5: 0.5 µg/mL

Look up MIC for the entries below, preserving their order.
1. CCNC(=O)O[C@H]1[C@H](C)O[C@@H](O[C@H]2[C@H](N(C)C)[C@@H](O)[C@H](O[C@H]3[C@@H](CC=O)C[C@@H](C)[C@@H](O)CN(C)CCC[C@H](C/C=C/c4cnc(N)c5ccccc45)OC(=O)C[C@@H](O)[C@@H]3OC)O[C@@H]2C)C[C@@]1(C)OC(=O)CC
2. CCCNC(=O)O[C@H]1[C@H](C)O[C@@H](O[C@H]2[C@H](N(C)C)[C@@H](O)[C@H](O[C@H]3[C@@H](CC=O)C[C@@H](C)[C@@H](O)CN(C)CCC[C@H](C/C=C/c4cnc5ccccc5c4)OC(=O)C[C@@H](OC(=O)CC)[C@@H]3OC)O[C@@H]2C)C[C@@]1(C)OC(=O)CC
3. CCC(=O)O[C@@H]1CC(=O)O[C@@H](C/C=C/c2ccc3ccccc3c2)CCCN(C)C[C@H](O)[C@H](C)C[C@H](CC=O)[C@H](O[C@@H]2O[C@H](C)[C@@H](O[C@H]3C[C@@](C)(O)[C@@H](OC(=O)CC)[C@H](C)O3)[C@H](N(C)C)[C@H]2O)[C@H]1OC
4. CCNC(=O)O[C@H]1[C@H](C)O[C@@H](O[C@H]2[C@H](N(C)C)[C@@H](O)[C@H](O[C@H]3[C@@H](CC=O)C[C@@H](C)[C@@H](O)CN(C)CCC[C@H](C/C=C/c4ccnc5ccccc45)OC(=O)C[C@@H](OC(=O)CC)[C@@H]3OC)O[C@@H]2C)C[C@@]1(C)OC(=O)CC
5. CCCC(=O)O[C@H]1[C@H](C)O[C@@H](O[C@H]2[C@H](N(C)C)[C@@H](O)[C@H](O[C@H]3[C@@H](CC=O)C[C@@H](C)[C@@H](O)/C=C/C=C/C[C@@H](C)OC(=O)C[C@@H](O)[C@@H]3OC)O[C@@H]2C)C[C@@]1(C)OC(=O)CC
6. CCC(=O)O[C@@H]1CC(=O)O[C@@H](C/C=C/c2cnc3ccccc3c2)CCCN(C)C[C@H](O)[C@H](C)C[C@H](CC=O)[C@H](O[C@@H]2O[C@H](C)[C@@H](O[C@H]3C[C@@](C)(OC(=O)CC)[C@@H](OC(=O)NC(C)C)[C@H](C)O3)[C@H](N(C)C)[C@H]2O)[C@H]1OC
7. CCC(=O)O[C@@H]1CC(=O)O[C@@H](C/C=C/c2cnc3ccccc3c2)CCCN(C)C[C@H](O)[C@H](C)C[C@H](CC=O)[C@H](O[C@@H]2O[C@H](C)[C@@H](O[C@H]3C[C@@](C)(OC(=O)CC)[C@@H](OC(=O)NCCO)[C@H](C)O3)[C@H](N(C)C)[C@H]2O)[C@H]1OC

Output:
1. 0.03 µg/mL
2. 0.25 µg/mL
3. 1 µg/mL
4. 0.25 µg/mL
5. 0.13 µg/mL
6. 0.25 µg/mL
7. 0.13 µg/mL
